A collection of compounds and their measured change in vivo at 100 mg/kg
# Tested on: ddY-strain male mice
# METHOD DESCRIPTION: Effect of prolongation of sleeping time (hexobarbital)
# Assay type: in vivo
# REPORTED CONDITIONS: Mus musculus, ip, 100 mg/kg intraperitoneal
Give a bare numeral; the unit % is implied.

Examples from the recorded data:
COc1ccc(C2(c3ccc(OC)cc3OC)NC(=O)NC2=O)cc1 (stereo not shown) [Compound 15]: 15.4
O=C1NC(=O)C(c2ccc(O)cc2)(c2ccc(O)cc2O)N1 (stereo not shown) [Compound 31]: 19.1
O=C1NC(=O)C(c2ccc(O)cc2)(c2ccc(O)cc2)N1 [Compound 4, 5,5-Bis(4-hydroxyphenyl)hydantoin]: 124

Q: Look up change in vivo at 100 mg/kg with ddY-strain male mice for this compound: COc1ccc(C2(c3ccc(OC)c(Cl)c3)NC(=O)NC2=O)cc1 (stereo not shown) [Compound 2]
A: 55.9

###

# METHOD DESCRIPTION: Acute toxicity test (LD50, Litchfield-Wilcoxon), rats
# REPORTED CONDITIONS: rat, in vivo, ip, female, intraperitoneal
A collection of molecules and their measured LD50 at 72 h
Give a bare numeral; the unit mg/kg is implied.

Examples from the recorded data:
O=C1NC(=O)C(c2ccc(O)cc2)(c2ccc(O)c(O)c2)N1 (centres unmarked): 1480
O=C1NC(=O)C(c2ccc(O)c(CO)c2)(c2ccc(O)c(CO)c2)N1: 4090

# next molecule below
Q: Please report the recorded LD50 at 72 h for O=C1NC(=O)C(c2ccc(O)cc2)(c2ccc(O)cc2)N1 [Compound 4, 5,5-Bis(4-hydroxyphenyl)hydantoin] .
A: 1320

###

# Test system: normal rats and SART stress rats
# METHOD DESCRIPTION: Analgesic effect, pain induced by Bradykinin
# Format: in vivo, rats (SD-strain male)
# REPORTED CONDITIONS: normal rats; intraperitoneal 100 mg/kg
A collection of compounds and their measured Analgesic effect
Give a bare numeral; the unit % is implied.

O=C1NC(=O)C(c2cc(O)c(O)c(O)c2)(c2cc(O)c(O)c(O)c2)N1 [Compound 36, 5,5-Bis(3,4,5-trihydroxyphenyl)hydantoin]: 33.3
O=C1NC(=O)C(c2ccc(O)cc2)(c2ccc(O)cc2)N1 [Compound 4, 5,5-Bis(4-hydroxyphenyl)hydantoin]: 100
COc1ccc(C2(c3ccc(OC)c(Cl)c3)NC(=O)NC2=O)cc1 (centres unmarked) [Compound 2]: 66.7
CCC1(c2ccc(O)cc2)NC(=O)NC1=O (centres unmarked) [Compound 24, 5-Ethyl-5-(4-hydroxyphenyl)hydantoin]: 20

Q: Please report the recorded Analgesic effect for O=C1NC(=O)C(c2ccccc2)(c2ccc(O)cc2)N1 (centres unmarked) [Compound 7, 5-(4-Hydroxyphenyl)-5-phenylhydantoin] .
A: 50

###

# Test system: normal mice and SART stress mice
# METHOD DESCRIPTION: Analgesic effect, tail pressure method (Randall-Selitto's device)
# Assay type: in vivo, mice (ddY-strain male)
# REPORTED CONDITIONS: SART stress mice; intraperitoneal 50 mg/kg; 60 minutes
A collection of compounds and their measured Analgesic effect

Examples from the recorded data:
Cc1cc(C2(c3ccc(O)cc3)NC(=O)NC2=O)ccc1O (centres unmarked): 43.6%
COc1ccc(C2(c3ccc(OC)c(C)c3)NC(=O)NC2=O)cc1 (centres unmarked): 60.3%
O=C1NC(=O)C(c2ccc(O)cc2)(c2ccc(O)c(O)c2)N1 (centres unmarked): 78.3%
O=C1NC(=O)C(c2cc(O)c(O)c(O)c2)(c2cc(O)c(O)c(O)c2)N1 [Compound 36, 5,5-Bis(3,4,5-trihydroxyphenyl)hydantoin]: 120.5%

# next compound below
Q: Please report the recorded Analgesic effect for COc1ccc(C2(c3ccc(OC)c(Cl)c3)NC(=O)NC2=O)cc1 (centres unmarked) .
A: 79.6%
